Origin of values: paper PMC8897968

molecular target: rabies virus G protein (Rabies virus)
Sequence (O92284 20-459 limits assumed): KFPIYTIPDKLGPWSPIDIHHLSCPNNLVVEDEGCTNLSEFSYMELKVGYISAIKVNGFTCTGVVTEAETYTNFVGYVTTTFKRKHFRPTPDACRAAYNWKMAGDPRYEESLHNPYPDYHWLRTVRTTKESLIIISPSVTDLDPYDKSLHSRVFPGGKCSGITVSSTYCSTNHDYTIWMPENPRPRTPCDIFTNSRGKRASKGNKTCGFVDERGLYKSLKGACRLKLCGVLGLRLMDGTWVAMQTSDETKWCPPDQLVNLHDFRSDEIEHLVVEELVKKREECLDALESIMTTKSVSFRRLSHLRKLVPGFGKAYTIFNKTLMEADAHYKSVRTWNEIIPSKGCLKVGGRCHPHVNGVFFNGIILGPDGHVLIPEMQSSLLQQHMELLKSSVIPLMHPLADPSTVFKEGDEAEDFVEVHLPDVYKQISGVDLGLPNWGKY
Property label: pKd
Remember the convention: pKd equals -log10 of concentration in molar.

Query the reported pKd for rabies virus G protein (Rabies virus); item: COc1ccc(-n2c3c/c(=N\C(C)C)c(Nc4cccc(F)c4)cc-3nc3ccccc32)cn1 [Compound 15f]
6.55

Ok, now CC(C)/N=c1\cc2n(-c3ccc(Cl)cc3)c3ccccc3nc-2cc1Nc1ccc(Cl)cc1 [Compound 1, clofazimine, reference compound]
6.14
